- Tested on: RXRa DBDmut IVT, anti-RXR (DBD mutation: RXRa K156A/R161A, NR concentration 90 nM)
- assayProcedure: PBM binding z-score (relative to random genomic background probes); higher = stronger binding; sequences stand for … in GC…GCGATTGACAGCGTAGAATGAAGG
assayReadout: PBM binding z-score
Numbers only.

[
  {
    "sequenceChain": "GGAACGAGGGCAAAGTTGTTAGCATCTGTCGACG",
    "PBM binding z-score": 2.61
  },
  {
    "sequenceChain": "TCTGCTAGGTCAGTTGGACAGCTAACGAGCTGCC",
    "PBM binding z-score": 0.472
  },
  {
    "sequenceChain": "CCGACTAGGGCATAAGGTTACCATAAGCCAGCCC",
    "PBM binding z-score": -0.152
  },
  {
    "sequenceChain": "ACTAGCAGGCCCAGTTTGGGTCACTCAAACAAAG",
    "PBM binding z-score": -0.882
  },
  {
    "sequenceChain": "CAAACTAGGTCAAAGATCAAAGTCGAGCCAACCA",
    "PBM binding z-score": 1.97
  },
  {
    "sequenceChain": "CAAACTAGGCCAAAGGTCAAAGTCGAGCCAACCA",
    "PBM binding z-score": 1.38
  }
]

Kindly review the next sequence as well.
Task: Fill blank: measured PBM binding z-score of the sequence "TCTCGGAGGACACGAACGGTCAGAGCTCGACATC" is ____.
Output: 0.557

All figures here come from the supplement of paper PMC6555819.
